// values below are reported T/C
test system: CD2F1 mice, L1210 leukemia ip, survival T/C; experiment: NCI In Vivo Anticancer Drug Screen. Data for tumor model L1210 Leukemia (intraperitoneal) in CD2F1 (CDF1) mice; conditions: endpoint: mean survival time; dose: 400.0 mg/kg/injection; schedule: Q04DX003 (ip); vehicle: saline; higher = longer survival
Toxic doses and inconclusive results are not listed.

{"COMPOUND": "CCOC(=O)Cc1cccc(C)n1", "T/C": "94 % of control"}
{"COMPOUND": "NC/C(=N\\Nc1ccc([N+](=O)[O-])cc1[N+](=O)[O-])c1ccccc1", "T/C": "97 % of control"}
{"COMPOUND": "COc1cc(C)ccc1C1=CCCCC1", "T/C": "87 % of control"}
{"COMPOUND": "COc1ccc(/C=C/C(=O)c2ccc3c(c2)OCO3)cc1OC", "T/C": "95 % of control"}
{"COMPOUND": "NC(=O)NC1OC(CO)C(O)C(O)C1O (configuration not stated)", "T/C": "105 % of control"}
{"COMPOUND": "Cc1nc(N)[nH]c(=O)c1CCCN", "T/C": "95 % of control"}
{"COMPOUND": "CN(C)CCCNCCCCNCCCN(C)C", "T/C": "106 % of control"}

---

test system: CD2F1 mice, L1210 leukemia ip, survival T/C; assay: NCI In Vivo Anticancer Drug Screen. Data for tumor model L1210 Leukemia (intraperitoneal) in CD2F1 (CDF1) mice; details: endpoint: mean survival time; dose: 100.0 mg/kg/injection; schedule: Q04DX003 (ip); vehicle: saline with Tween-80; higher = longer survival
Inconclusive results and toxic doses are left out.

{"COMPOUND": "CC(C)C(Br)C(=O)NCC(=O)NCC(=O)O (configuration not stated)", "T/C": "101 % of control"}
{"COMPOUND": "CC(CP(=O)(c1ccccc1)c1ccccc1)C(=O)O (configuration not stated)", "T/C": "92 % of control"}
{"COMPOUND": "C=CC1CCCCC1C=C (configuration not stated)", "T/C": "110 % of control"}
{"COMPOUND": "Cc1cccc(=O)n1Cc1ccccc1", "T/C": "95 % of control"}
{"COMPOUND": "CC(=O)OC1CC2CC(C1C)C2(C)C (configuration not stated)", "T/C": "90 % of control"}
{"COMPOUND": "Clc1c(Cl)c(Cl)c(Cl)c(Cl)c1Cl", "T/C": "97 % of control"}
{"COMPOUND": "CC(=O)NC1C(OC(C)=O)OC(COC(c2ccccc2)(c2ccccc2)c2ccccc2)C(OS(C)(=O)=O)C1OC(C)=O (configuration not stated)", "T/C": "103 % of control"}

---

// values below are reported T/C
system: CD2F1 mice, L1210 leukemia ip, survival T/C; assay: NCI In Vivo Anticancer Drug Screen. Data for tumor model L1210 Leukemia (intraperitoneal) in CD2F1 (CDF1) mice; conditions: endpoint: mean survival time; dose: 50.0 mg/kg/injection; schedule: Q01DX009 (ip); vehicle: saline with Tween-80; higher = longer survival
Toxic doses and inconclusive results are not listed.

{"MOLECULE": "CCCC(C)CC(=CC(C)(C)C)CC(C)CCC (configuration not stated)", "T/C": "96 % of control"}
{"MOLECULE": "CC(C)C1=CC2=CCC3C(C)(C(=O)O)CCCC3(C)C2CC1 (configuration not stated)", "T/C": "98 % of control"}
{"MOLECULE": "CCOc1ccc(Cl)cc1", "T/C": "96 % of control"}
{"MOLECULE": "O=C1C=C(NNc2ccccc2)CCC1", "T/C": "104 % of control"}
{"MOLECULE": "O=C(Nc1ccc(Cl)c(Cl)c1)Nc1cc(Cl)ccc1Sc1ccc(Cl)cc1S(=O)(=O)O", "T/C": "100 % of control"}
{"MOLECULE": "O=C(Nc1c(Cl)cccc1Cl)OCCOc1ccc(Br)cc1", "T/C": "100 % of control"}
{"MOLECULE": "Cc1c(N)cc([N+](=O)[O-])c(C)c1[N+](=O)[O-]", "T/C": "110 % of control"}
{"MOLECULE": "O=C(Nc1cccc2ccccc12)OCCCBr", "T/C": "86 % of control"}
{"MOLECULE": "NC1=NC(c2ccc(Cl)cc2)N(c2ccc(S(N)(=O)=O)cc2)C(N)=N1 (configuration not stated)", "T/C": "100 % of control"}
{"MOLECULE": "COc1ccc(NC(=O)Oc2ccc(C(C)(C)C)cc2)cc1", "T/C": "97 % of control"}
{"MOLECULE": "CC/C=N/Nc1ccc([N+](=O)[O-])cc1[N+](=O)[O-]", "T/C": "93 % of control"}
{"MOLECULE": "O=C(O)CN(CCO)CCN(CC(=O)O)CC(=O)O", "T/C": "108 % of control"}
